B1: OR4K15 (parent)
chain: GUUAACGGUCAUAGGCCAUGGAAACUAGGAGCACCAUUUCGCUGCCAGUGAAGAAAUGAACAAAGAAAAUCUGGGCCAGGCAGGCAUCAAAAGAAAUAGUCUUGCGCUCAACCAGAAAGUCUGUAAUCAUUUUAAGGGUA

Variants of: B1
ASSAY_REMARKS: self-cleavage, relative activity (ratio to wild type); higher = more cleavage; in vitro, sequencing; the parent is a self-cleaving ribozyme
TEST_READOUT: self-cleavage
Form rule: numeric answer, no unit written next to it.

• GUUAACGGUCAUAGGCCACGGAAACUAGGAGCACCAUUUCGCUGCCAGUGAAGAAAUGAACAAAGAAAAUCUGGGCCAGGCAGGCAUCAAAAUAAAUAGUCUUGCGCUCAACCAGAAAGUCUGUAAUCAUUUUAAGGGUA [U19C G93U] = 1.5
• GUUAACGGUCAUAGGCCGUGGAAACUAGGAGCACCAUUUCGCUGCCAGUGAAGAAAUGAACAAAGAAAACCUGGGCCAGGCAGGCAUCAAAAGAAAUAGUCUUGCGCUCAACCAGAAAGUCUGUAAUCAUUUUAAGGGUA [A18G U70C] = 0.57
• GUUAACGGUCAUAGGUCAUGGAAACUAGGAGCACCAUUUCGCUGCCAGUGAAGAAAUGAACAAAGAAAAUCUGGGCCAGGCAGGCAUCAAAAGAAAUAGUCUUGCGCUCAACCAGAAAGUCUGUAAUCAUUUUAAGGGUA [C16U] = 1.25

Next item in the queue.
Ask | Please indicate self-cleavage recorded for GUUAACGGUCAUAGGCCAUGGAAACUAGGAGCACCAUUUCGCUGCCAGUGAAGAAAUGAACAAAGAAAAUCUGGGCCAGGCAGGCAUCAAAAGAACUAGUCUUGCGCUUAACCAGAAAGUCUGUAAUCAUUUUAAGGGUA [A96C C109U]
Reply | 0.21

This collection of values is drawn from the RNAGym collection of RNA variant scans (doi:10.7554/elife.90254).
